Biological target: hERG (Homo sapiens, UniProt Q12809)
Sequence (Q12809 whole entry): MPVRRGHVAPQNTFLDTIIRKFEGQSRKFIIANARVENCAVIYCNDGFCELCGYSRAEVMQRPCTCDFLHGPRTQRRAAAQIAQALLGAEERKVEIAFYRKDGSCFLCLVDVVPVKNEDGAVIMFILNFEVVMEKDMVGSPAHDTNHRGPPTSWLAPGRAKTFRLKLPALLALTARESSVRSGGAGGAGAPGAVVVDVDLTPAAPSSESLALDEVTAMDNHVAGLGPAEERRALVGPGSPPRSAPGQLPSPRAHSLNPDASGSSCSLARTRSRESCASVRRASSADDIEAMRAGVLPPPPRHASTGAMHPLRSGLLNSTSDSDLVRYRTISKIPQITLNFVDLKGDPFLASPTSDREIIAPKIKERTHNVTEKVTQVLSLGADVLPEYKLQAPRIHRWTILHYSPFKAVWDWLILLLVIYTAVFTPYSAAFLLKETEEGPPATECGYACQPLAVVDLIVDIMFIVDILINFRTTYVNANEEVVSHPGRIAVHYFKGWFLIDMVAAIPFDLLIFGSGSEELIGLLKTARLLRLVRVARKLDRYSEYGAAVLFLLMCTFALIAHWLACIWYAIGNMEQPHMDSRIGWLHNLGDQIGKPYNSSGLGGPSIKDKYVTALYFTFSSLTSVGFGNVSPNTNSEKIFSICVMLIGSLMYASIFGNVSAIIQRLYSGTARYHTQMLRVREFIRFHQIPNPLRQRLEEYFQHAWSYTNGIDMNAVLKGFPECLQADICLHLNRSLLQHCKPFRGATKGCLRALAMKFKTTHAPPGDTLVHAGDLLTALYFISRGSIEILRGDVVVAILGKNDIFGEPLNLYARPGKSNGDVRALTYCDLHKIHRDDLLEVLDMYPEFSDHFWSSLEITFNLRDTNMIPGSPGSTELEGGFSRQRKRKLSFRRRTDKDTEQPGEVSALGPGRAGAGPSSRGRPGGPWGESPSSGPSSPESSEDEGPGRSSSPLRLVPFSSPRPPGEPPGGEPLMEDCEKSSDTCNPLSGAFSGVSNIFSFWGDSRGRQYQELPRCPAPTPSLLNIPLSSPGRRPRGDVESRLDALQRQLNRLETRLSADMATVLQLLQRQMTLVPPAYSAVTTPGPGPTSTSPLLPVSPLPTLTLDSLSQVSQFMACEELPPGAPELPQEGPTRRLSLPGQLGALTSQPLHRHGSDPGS
endpoint: pKi
One number for each entry, as −log10 of the molar value.

Query: What value of pKi has been recorded for this entry: CCC(C)[C@@H](CN1CCCCC1)NC(=O)c1cc(C)nc(-c2cc(C)ccc2C(F)(F)F)c1 (stereo partly shown)
Reply: 4.90

====

Assay: in vitro
Type: in vitro ADME
Details: rat, microsomes
endpoint: microsomal CLint (µL/min/mg)
One number for each entry, in µL/min/mg.

Query: What value of microsomal CLint has been recorded for this entry: CCC(C)[C@@H](CN1CCCCC1)NC(=O)c1cc(C)nc(-c2cc(C)ccc2C(F)(F)F)c1 (stereo partly shown)
Reply: 81
